// provenance: ChEMBL document CHEMBL1629416

Overview of recorded Activity for various compounds
Target: GABA-A receptor; alpha-2/beta-3/gamma-2 (Homo sapiens) (UniProt P18507+P28472+P47869)
Assay: Negative allosteric modulation of human alpha2beta3gamma2 GABA receptor expressed in Xenopus laevis oocytes at 1 uM
Assay type: cell-based
Conditions: Oocyte

>>> observed("Nc1c(C(=O)N2CC(F)(F)C2)nnc2c(-c3ncccn3)c(F)ccc12")
"7%"
>>> observed("CCc1c(C(=O)OC)ncc2[nH]c3cc(OC)c(OC)cc3c12")
"61%"
>>> observed("CCCNC(=O)c1nnc2c(-c3cncc(C(=O)N4CCC4)c3)cccc2c1N")
"5%"

Next, consider the following compound.
Bench note, GABA-A receptor; alpha-2/beta-3/gamma-2 (Homo sapiens) (UniProt P18507+P28472+P47869): Nc1c(C(=O)N2CCC2)nnc2c(-c3ncccn3)cccc12 , Activity reads 5%
